The reported numbers originate from patent US4464367A.

experiment-summary: solubility in a buffer solution
Assay type: physicochemical
assay-conditions: pH 7, aqueous buffer; buffer solution having a pH of 7
Where a name gives a salt, the structure may show the parent alone.
reported-endpoint: solubility

Report measured solubility; entry is CO/N=C(\C(=O)NC1C(=O)N2C(C(=O)O)=C(CSC(=O)c3ccco3)CSC12)c1csc(N)n1 (stereo not shown) [sodium salt of compound CM 31916] > 200 mg/mL
